System: PC-3
endpoint name: CC50 (µM)

| smiles notation | tested system | reading unit | numeric value |
| --- | --- | --- | --- |
| C=C1C(=O)O[C@H]2[C@H]1CC/C(COC(=O)CCC(=O)NCCCCCCCCCNC(=O)CCC(=O)OC/C1=C/CC[C@@]3(C)O[C@H]3[C@H]3OC(=O)C(=C)[C@@H]3CC1)=C\CC[C@@]1(C)O[C@@H]21 | PC-3 | µM | 29.6 |

---

Recorded TGI, one value per entry.
Tested on: NCI-H522
test protocol: NCI 60 cell line five dose, Non-Small Cell Lung Cancer
endpoint name: TGI (µM)

| smiles notation | reading unit | numeric value |
| --- | --- | --- |
| C=C1C(=O)O[C@H]2[C@H]1CC/C(COC(=O)CCC(=O)NCCCCCCCCNC(=O)CCC(=O)OC/C1=C/CC[C@@]3(C)O[C@H]3[C@H]3OC(=O)C(=C)[C@@H]3CC1)=C\CC[C@@]1(C)O[C@@H]21 | µM | 1.80 |
| C=C1C(=O)O[C@H]2[C@H]1CC/C(COC(=O)CCC(=O)NCCCCCCCCCNC(=O)CCC(=O)OC/C1=C/CC[C@@]3(C)O[C@H]3[C@H]3OC(=O)C(=C)[C@@H]3CC1)=C\CC[C@@]1(C)O[C@@H]21 | µM | 1.64 |
| C=C1C(=O)O[C@H]2[C@H]1CC/C(COC(=O)NCCCCCNC(=O)OC/C1=C/CC[C@@]3(C)O[C@H]3[C@H]3OC(=O)C(=C)[C@@H]3CC1)=C\CC[C@@]1(C)O[C@@H]21 | µM | 0.44 |
| C=C1C(=O)O[C@H]2[C@H]1CC/C(COC(=O)NCCCCNC(=O)OC/C1=C/CC[C@@]3(C)O[C@H]3[C@H]3OC(=O)C(=C)[C@@H]3CC1)=C\CC[C@@]1(C)O[C@@H]21 | µM | 0.375 |

---

Tested on: K-562
test protocol: NCI 60 cell line five dose, Leukemia
details: read-out: LC50
Listing: CC50 of selected compounds

| compound | CC50 |
| --- | --- |
| C=C1C(=O)O[C@H]2[C@H]1CC/C(COC(=O)NCCCCNC(=O)OC/C1=C/CC[C@@]3(C)O[C@H]3[C@H]3OC(=O)C(=C)[C@@H]3CC1)=C\CC[C@@]1(C)O[C@@H]21 [JVM 3-54] | > 100 µM |
| C=C1C(=O)O[C@H]2[C@H]1CC/C(COC(=O)NCCCCCNC(=O)OC/C1=C/CC[C@@]3(C)O[C@H]3[C@H]3OC(=O)C(=C)[C@@H]3CC1)=C\CC[C@@]1(C)O[C@@H]21 [JVM 2-76] | > 100 µM |

---

Tested on: OVCAR-3
test protocol: NCI 60 cell line five dose, Ovarian Cancer
details: read-out: LC50

| molecule | reading unit | CC50 |
| --- | --- | --- |
| C=C1C(=O)O[C@H]2[C@H]1CC/C(COC(=O)NCCCCNC(=O)OC/C1=C/CC[C@@]3(C)O[C@H]3[C@H]3OC(=O)C(=C)[C@@H]3CC1)=C\CC[C@@]1(C)O[C@@H]21 [JVM 3-54] | µM | 4.76 |
| C=C1C(=O)O[C@H]2[C@H]1CC/C(COC(=O)NCCCCCNC(=O)OC/C1=C/CC[C@@]3(C)O[C@H]3[C@H]3OC(=O)C(=C)[C@@H]3CC1)=C\CC[C@@]1(C)O[C@@H]21 [JVM 2-76] | µM | 5.07 |
